Tested on: bronchoconstriction induced by U-46619
Assay: Inhibitory effect on bronchoconstriction induced by U-46619 (Konzett-Roessler)
Assay type: in vivo, Male Hartley guinea-pigs
Conditions: Cavia porcellus; 0.3 mg/kg orally, 2 hours before U-46619 (4 µg/kg, cervical vein), anesthetized guinea-pigs, compared to control group; read-out: Inhibition rate (%)
reported.endpoint: inhibition in vivo at 0.3 mg/kg
For clarity, give the value followed by its unit.

O=C(O)CCCc1ccc(C(CCCCCC(F)(F)F)NS(=O)(=O)c2ccc(F)cc2)s1 (stereo not drawn) | 73%
O=C(O)CCCc1ccc(C(CCCC(F)(F)C(F)(F)C(F)(F)F)NS(=O)(=O)c2ccc(F)cc2)cc1 (stereo not drawn) | 85%

# ---- query compound ----
O=C(O)CCCc1ccc(C(CCCC(F)(F)C(F)(F)C(F)(F)F)NS(=O)(=O)c2ccc(Cl)cc2)s1 (stereo not drawn) yielded inhibition in vivo at 0.3 mg/kg of 93%

###

System: bronchoconstriction induced by U-46619
Assay: Inhibitory effect on bronchoconstriction induced by U-46619 (Konzett-Roessler)
Assay type: in vivo, Male Hartley guinea-pigs
Details: Cavia porcellus; 0.3 mg/kg orally, 2 hours before U-46619 (4 µg/kg, cervical vein), anesthetized guinea-pigs, compared to control group; read-out: Inhibition rate (%)
Would you kindly list inhibition in vivo at 0.3 mg/kg for each of these molecules?
Give the value; after it, write the unit.

Here's what some known entries look like.
CCCCCC(NS(=O)(=O)c1ccc(Cl)cc1)c1ccc(CCCC(=O)O)cc1 (stereo not shown) [Reference compound 1, reference compound] | 85%
CC(C)CCCC(NS(=O)(=O)c1ccc(Cl)cc1)c1ccc(CCCC(=O)O)cc1 (stereo not shown) [Reference compound 2, reference compound] | 81%
O=C(O)CCCc1ccc(C(CCCC(F)(F)C(F)(F)F)NS(=O)(=O)c2ccc(Cl)cc2)s1 (stereo not shown) | 85%

As a next step, examine the molecule that follows.
// field: inhibition in vivo at 0.3 mg/kg; key: O=C(O)CCCc1ccc(C(CCCC(F)(F)C(F)(F)C(F)(F)F)NS(=O)(=O)c2ccc(F)cc2)s1 (stereo not shown) ; value = 89%

###

Tested on: human liver microsomes
Test: In vitro metabolism test
Type: in vitro ADME
Conditions: 0.4mg protein/ml human liver microsomes, 0.02 mM test compound, NADPH-generating system, 37°C for 30 minutes, HPLC
Procedure: 0.05 mM EDTA-0.1M phosphate buffer (pH 7.4), distilled water, 0.4mg protein/ml human liver microsomes and 0.02 mM test compound were mixed in a test tube under ice-cooling. After the mixture was shaken at 37°C for 2 minutes beforehand, the mixture was added with a ready-mix of NADPH-generating system and then shaken at 37°C for 30 minutes. After the incubation, the reaction was stopped by cooling with ice. […]
Answer each item with its documented Residual rate (%).
Give bare numbers, in %.

Use the examples below as a reference point.
O=C(O)CCCc1ccc(C(CCC(F)(F)C(F)(F)C(F)(F)F)NS(=O)(=O)c2ccc(F)cc2)s1 (stereo not drawn) | 86
O=C(O)CCCc1ccc(C(CCCC(F)(F)C(F)(F)C(F)(F)F)NS(=O)(=O)c2ccc(F)cc2)cc1 (stereo not drawn) | 93

// next entry
Simply: O=C(O)CCCc1ccc(C(CCCCCC(F)(F)F)NS(=O)(=O)c2ccc(F)cc2)s1 (stereo not drawn) , human liver microsomes, Residual rate (%) = 84

Data provenance: patent EP0943606A1
